Test system: Staphylococcus aureus
assayOverview: Bactericidal activity against Staphylococcus aureus ATCC 29213 assessed as inhibition of bacterial growth incubated for 24 hrs by resazurin dye based microtiter plate assay
Assay type: functional

smilesRepr | assayedSystem | MBC [mg/L]
CC1CCN(c2cc(/C=C/c3ccc(N(C)C)cc3)[n+](C)c3ccccc23)CC1.[I-] | Staphylococcus aureus | 8
CN(C)c1ccc(/C=C/c2cc(N3CCCCC3)c3ccccc3[n+]2C)cc1.[I-] | Staphylococcus aureus | 8
CC1CCN(c2cc(/C=C/c3ccc(N(C)C)cc3)c3ccccc3[n+]2C)CC1.[I-] | Staphylococcus aureus | 16
CCCCCNc1cc(/C=C/c2ccc(N(C)C)cc2)[n+](C)c2ccccc12.[I-] | Staphylococcus aureus | 8
